- assay-system: T1, human CD71 extracellular domain (human, UniProt P02786 89-760)
- T1 construct: also called hCD71; human CD71-ECD
- T1 sequence (P02786 89-760): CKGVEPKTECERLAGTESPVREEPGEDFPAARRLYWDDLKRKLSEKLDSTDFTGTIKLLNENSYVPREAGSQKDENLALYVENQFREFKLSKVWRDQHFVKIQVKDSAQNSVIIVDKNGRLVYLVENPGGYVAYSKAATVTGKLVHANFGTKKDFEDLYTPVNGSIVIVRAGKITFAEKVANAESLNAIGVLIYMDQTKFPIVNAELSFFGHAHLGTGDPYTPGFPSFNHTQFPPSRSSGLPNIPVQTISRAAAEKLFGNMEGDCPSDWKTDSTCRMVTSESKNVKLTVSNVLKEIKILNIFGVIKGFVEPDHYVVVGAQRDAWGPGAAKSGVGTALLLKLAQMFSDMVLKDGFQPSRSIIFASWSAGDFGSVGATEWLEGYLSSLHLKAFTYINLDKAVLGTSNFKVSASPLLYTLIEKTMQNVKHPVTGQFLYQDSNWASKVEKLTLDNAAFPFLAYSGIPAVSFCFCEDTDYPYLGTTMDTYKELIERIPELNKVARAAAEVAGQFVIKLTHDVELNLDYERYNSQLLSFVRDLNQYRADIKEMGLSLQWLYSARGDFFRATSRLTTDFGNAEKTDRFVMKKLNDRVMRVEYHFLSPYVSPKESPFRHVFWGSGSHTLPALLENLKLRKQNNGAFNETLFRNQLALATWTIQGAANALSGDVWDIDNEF
- assay-name: primary ELISA; further: test concentration or dose not given here
Listed below: RLU values for each entry.
Give the quantity in RLU, number only.

Please review the entries below; each comes with its answer.
CD71-binding FN3 domain of SEQ ID NO: 188 (designed binder) MSLPAPKNLVVSRVTEDSARLSWTAPDAAFDSFEIGYWENAYKGEAIVLTVPGSERSYDLTGLKPGTEYVVFIGGVKGGHGSQPLSAIFTT
1.11e+06
CD71-binding FN3 domain of SEQ ID NO: 148 (designed binder) MSLPAPKNLVVSRVTEDSARLSWTAPDAAFDSFEIVYQENSAYGEAIVLTVPGSERSYDLTGLKPGTEYWVQIGGVKGGEWSAPLSAIFTT
2.45e+06
CD71-binding FN3 domain of SEQ ID NO: 152 (designed binder) MSLPAPKNLVVSRVTEDSARLSWTAPDAAFDSFDIGYFEATYYGEAIVLTVPGSERSYDLTGLKPGTEYWVQIGGVKGGNWSAPLSAIFTT
2.36e+06

Hello, please tell me recorded RLU for this one: CD71-binding FN3 domain of SEQ ID NO: 192 (designed binder) MSLPAPKNLVVSRVTEDSARLSWTAPDAAFDSFEIGYFENLYLGEAIVLTVPGSERSYDLTGLKPGTEYWVQIGGVKGGWGSNPLSAIFTT
2.67e+06
